- System: Mannheimia haemolytica
- testName: minimum inhibitory concentration (MIC)
- testParameters: isolate (source animal id): 32
# Lookup of reported minimum inhibitory concentration keyed by entry

Reference set, count: 5
* CCCNC[C@]1(O)[C@H](C)O[C@@H](O[C@H]2[C@H](C)[C@@H](O[C@@H]3O[C@H](C)C[C@H](N(C)C)[C@H]3O)[C@](C)(O)C[C@@H](C)CN[C@H](C)[C@@H](O)[C@](C)(O)[C@@H](CC)OC(=O)[C@@H]2C)C[C@@]1(C)OC | ≤ 8 µg/mL
* CC[C@H]1OC(=O)C[C@@H](O)[C@H](C)[C@@H](O[C@@H]2O[C@H](C)[C@@H](O)[C@H](N(C)C)[C@H]2O)[C@@H](CCN2C[C@H](C)C[C@H](C)C2)C[C@@H](C)C(=O)/C=C/C(C)=C/[C@@H]1CO[C@@H]1O[C@H](C)[C@@H](O)[C@@H](OC)[C@H]1OC | 4 µg/mL
* CCC[C@@H]1C[C@@H](C(=O)N[C@@H]([C@H]2O[C@H](SC)[C@H](O)[C@@H](O)[C@H]2O)[C@H](C)Cl)N(C)C1 | 8 µg/mL
* CCCN1C[C@H](C)[C@@H](O)[C@](C)(O)[C@@H](CC)OC(=O)[C@H](C)[C@@H](O[C@H]2C[C@@](C)(OC)[C@@H](O)[C@H](C)O2)[C@H](C)[C@@H](O[C@@H]2O[C@H](C)C[C@H](N(C)C)[C@H]2O)[C@](C)(O)C[C@H]1C | ≤ 1 µg/mL
* CC[C@H]1OC(=O)C[C@@H](O)[C@H](C)[C@@H](O[C@@H]2O[C@H](C)[C@@H](O[C@H]3C[C@@](C)(O)[C@@H](O)[C@H](C)O3)[C@H](N(C)C)[C@H]2O)[C@@H](CC=O)C[C@@H](C)C(=O)/C=C/C(C)=C/[C@@H]1CO[C@@H]1O[C@H](C)[C@@H](O)[C@@H](OC)[C@H]1OC | > 32 µg/mL

Consider the additional molecule presented here.
Any idea what minimum inhibitory concentration was measured for `CN(C)[C@@H]1C(O)=C(C(N)=O)C(=O)[C@@]2(O)C(O)=C3C(=O)c4c(O)cccc4[C@@](C)(O)[C@H]3C[C@@H]12` ?
> 8 µg/mL

====

- System: Escherichia coli
- testName: minimum inhibitory concentration (MIC)
- testParameters: isolate (source animal id): 135
minimum inhibitory concentration values by entry

- COc1cc(Cc2cnc(N)nc2N)cc(OC)c1OC.Cc1cc(NS(=O)(=O)c2ccc(N)cc2)no1 [trimethoprim-sulfamethoxazole]: ≤ 2 µg/mL

# lookup: minimum inhibitory concentration of CC[C@H]1OC(=O)C[C@@H](O)[C@H](C)[C@@H](O[C@@H]2O[C@H](C)[C@@H](O)[C@H](N(C)C)[C@H]2O)[C@@H](CCN2C[C@H](C)C[C@H](C)C2)C[C@@H](C)C(=O)/C=C/C(C)=C/[C@@H]1CO[C@@H]1O[C@H](C)[C@@H](O)[C@@H](OC)[C@H]1OC [Tilmicosin]
> 16 µg/mL

====

- Test system: Mannheimia haemolytica
- testName: minimum inhibitory concentration (MIC)
- testParameters: isolate (source animal id): 43
Recorded minimum inhibitory concentration by entry
Kindly answer with a numeric value in µg/mL, unit omitted.

* CN[C@@H]1[C@H](O)[C@H](NC)[C@H]2O[C@@]3(O)C(=O)C[C@@H](C)O[C@H]3O[C@@H]2[C@H]1O [Spectinomycin] | 32
* CS(=O)(=O)c1ccc([C@@H](O)[C@@H](CF)NC(=O)C(Cl)Cl)cc1 [Florfenicol] | 2
* CN1C[C@@H]2C[C@H]1CN2c1cc2c(cc1F)c(=O)c(C(=O)O)cn2C1CC1 [Danofloxacin] | 0.5

Query the reported minimum inhibitory concentration for Mannheimia haemolytica; item: CCN1CCN(c2cc3c(cc2F)c(=O)c(C(=O)O)cn3C2CC2)CC1 [Enrofloxacin]
0.5
